These entries and their values trace back to ChEMBL document CHEMBL4825704.

- system name: Nuclear receptor ROR-alpha (Mus musculus, UniProt P51448)
- Sequence (P51448 whole entry): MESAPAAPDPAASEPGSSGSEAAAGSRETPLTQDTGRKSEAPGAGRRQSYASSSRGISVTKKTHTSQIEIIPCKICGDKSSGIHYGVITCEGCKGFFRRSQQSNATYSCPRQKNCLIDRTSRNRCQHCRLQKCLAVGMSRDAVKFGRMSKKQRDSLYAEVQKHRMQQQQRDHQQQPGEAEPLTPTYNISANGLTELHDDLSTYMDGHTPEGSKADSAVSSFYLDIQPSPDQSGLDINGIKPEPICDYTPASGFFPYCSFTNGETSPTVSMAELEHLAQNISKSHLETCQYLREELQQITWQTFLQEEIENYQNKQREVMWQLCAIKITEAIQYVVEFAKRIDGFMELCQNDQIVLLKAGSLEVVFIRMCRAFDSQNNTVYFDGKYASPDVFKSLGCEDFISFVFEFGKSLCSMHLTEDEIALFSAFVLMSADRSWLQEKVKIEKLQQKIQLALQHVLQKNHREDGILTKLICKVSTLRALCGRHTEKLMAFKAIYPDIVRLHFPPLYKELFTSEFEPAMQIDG
- assay notes: Inverse agonist activity at RORalpha in mouse NIH3T3 cells incubated for 24 hrs by luminescence based assay
assay endpoint: pIC50
A value of pIC50 is the negative decimal logarithm of a concentration given in moles per litre.

Exercise: Which pIC50 is listed for CO[C@H]1CC(=O)[C@]2(C)[C@H]3CC[C@]4(C)[C@@H]([C@H](C)[C@H]5CC(C)=C(CO)C(=O)O5)CC[C@H]4[C@@H]3C[C@H]3O[C@]32[C@H]1O ?
Key: 4.95
